Method Summary: in vivo
Set-up: species or system SCID mice
Assay Conditions: SCID, mouse, iv, 10 pmol peptide, total radioactivity, %ID/g tissue, Muscle
Property: tissue uptake at 24 h
Field note: include the unit after the figure.

stdin: For the compound CSCC[C@H](NC(=O)[C@H](Cc1c[nH]c2ccccc12)NC(=O)CNC(=O)[C@H](Cc1ccc(O)cc1)NC(=O)[C@H](C)NC(=O)[C@@H](CCC(=O)O)NC(=O)[C@@H](CCC(=O)O)NC(=O)[C@@H](CCC(=O)O)NC(=O)[C@@H](CCC(=O)O)NC(=O)[C@@H](CCC(=O)O)NC(=O)[C@@H](CCC(=O)O)NC(=O)CN1CCN(CC(=O)O)CCN(CC(=O)O)CCN(CC(=O)O)CC1)C(=O)N[C@@H](CC(=O)O)C(=O)N[C@@H](Cc1ccccc1)C(N)=O [^111In-CP04, metal not drawn] , what tissue uptake at 24 h is on record?
stdout: 0.01 %ID/g

----------
Method Summary: in vivo
Set-up: species or system Swiss albino mice
Assay Conditions: Swiss albino, mouse, iv, 10 pmol peptide, total radioactivity, %ID/g tissue, Liver
Property: tissue uptake at 72 h (%ID/g)
Numbers only; they are read as %ID/g.

stdin: For the compound CSCC[C@H](NC(=O)[C@H](Cc1c[nH]c2ccccc12)NC(=O)CNC(=O)[C@H](Cc1ccc(O)cc1)NC(=O)[C@H](C)NC(=O)[C@@H](CCC(=O)O)NC(=O)[C@@H](CCC(=O)O)NC(=O)[C@@H](CCC(=O)O)NC(=O)[C@@H](CCC(=O)O)NC(=O)[C@@H](CCC(=O)O)NC(=O)[C@@H](CCC(=O)O)NC(=O)CN1CCN(CC(=O)O)CCN(CC(=O)O)CCN(CC(=O)O)CC1)C(=O)N[C@@H](CC(=O)O)C(=O)N[C@@H](Cc1ccccc1)C(N)=O [^111In-CP04, metal not drawn] , what tissue uptake at 72 h is on record?
stdout: 0.05

----------
Method Summary: in vivo
Set-up: species or system Swiss albino mice
Assay Conditions: Swiss albino, mouse, iv, 10 pmol peptide, total radioactivity, %ID/g tissue, Blood
Property: tissue uptake at 4 h (%ID/g)
Numbers only; they are read as %ID/g.

stdin: For the compound CSCC[C@H](NC(=O)[C@H](Cc1c[nH]c2ccccc12)NC(=O)CNC(=O)[C@H](Cc1ccc(O)cc1)NC(=O)[C@H](C)NC(=O)[C@@H](CCC(=O)O)NC(=O)[C@@H](CCC(=O)O)NC(=O)[C@@H](CCC(=O)O)NC(=O)[C@@H](CCC(=O)O)NC(=O)[C@@H](CCC(=O)O)NC(=O)[C@@H](CCC(=O)O)NC(=O)CN1CCN(CC(=O)O)CCN(CC(=O)O)CCN(CC(=O)O)CC1)C(=O)N[C@@H](CC(=O)O)C(=O)N[C@@H](Cc1ccccc1)C(N)=O [^111In-CP04, metal not drawn] , what tissue uptake at 4 h is on record?
stdout: 0.02

----------
Method Summary: in vivo
Parameters: species or system Swiss albino mice
Assay Conditions: Swiss albino, mouse, iv, 10 pmol peptide, total radioactivity, %ID/g tissue, Pancreas
Property: tissue uptake at 72 h
Field note: include the unit after the figure.

stdin: For the compound CSCC[C@H](NC(=O)[C@H](Cc1c[nH]c2ccccc12)NC(=O)CNC(=O)[C@H](Cc1ccc(O)cc1)NC(=O)[C@H](C)NC(=O)[C@@H](CCC(=O)O)NC(=O)[C@@H](CCC(=O)O)NC(=O)[C@@H](CCC(=O)O)NC(=O)[C@@H](CCC(=O)O)NC(=O)[C@@H](CCC(=O)O)NC(=O)[C@@H](CCC(=O)O)NC(=O)CN1CCN(CC(=O)O)CCN(CC(=O)O)CCN(CC(=O)O)CC1)C(=O)N[C@@H](CC(=O)O)C(=O)N[C@@H](Cc1ccccc1)C(N)=O [^111In-CP04, metal not drawn] , what tissue uptake at 72 h is on record?
stdout: 0.06 %ID/g
